# Tgt: UniProt A6QDA0
Observable: pKi
By convention, pKi is the negative base-10 log of a molar concentration.

*Q* So what pKi did N[C@@H](CS)C(=O)O get with UniProt A6QDA0?
*A* 4.04

* * *

# Tgt: SbnA (Staphylococcus aureus, UniProt A6QDA0, S185G/Y152F)
# Assay details: biochemical
Observable: pKd
By convention, pKd is the negative base-10 log of a molar concentration.

*Q* I would be grateful if you could share the reported pKd for N[C@@H](CS)C(=O)O .
*A* 2.05

* * *

# Tgt: SbnA (Staphylococcus aureus, UniProt A6QDA0, S185G)
# Assay details: biochemical
Observable: Ki (µM)
Lab book: enter the figure in µM, no units written.

*Q* I would be grateful if you could share the reported Ki for N[C@@H](CS)C(=O)O [L-cysteine] .
*A* 2100
